# experimentalSystem: RnDYRK1A-kd (Rattus norvegicus)
# Construct: RnDYRK1A-kd (Rattus norvegicus, amino acids 1–499 including the kinase domain, recombinant, expressed in bacteria); made in house; host or cells: bacteria
# runDescription: ADP-Glo kinase inhibition assay, DYRK1A
# Format: biochemical
# measurementParameters: 10 μM ATP, duplicate; read-out: DYRK1A IC50
Give measured IC50 for each item. Keep answers brief.
Returns: string containing the numeric result and its unit.

See these solved cases before continuing.
{"compound": "Cn1ncc2cc3cnccc3c([N+](=O)[O-])c21", "experimentalSystem": "RnDYRK1A-kd (Rattus norvegicus)", "IC50": "681 nM"}
{"compound": "Nc1c2ccncc2cc2cn[nH]c12 [Compound 2a, 1-H-pyrazolo[3,4-g]isoquinolin-9-amine]", "experimentalSystem": "RnDYRK1A-kd (Rattus norvegicus)", "IC50": "600 nM"}
{"compound": "CCn1ncc2cc3cnccc3c(N)c21", "experimentalSystem": "RnDYRK1A-kd (Rattus norvegicus)", "IC50": "250 nM"}
{"compound": "CCn1ncc2cc3cnccc3c([N+](=O)[O-])c21", "experimentalSystem": "RnDYRK1A-kd (Rattus norvegicus)", "IC50": "1110 nM"}

// next entry
Find IC50 (RnDYRK1A-kd (Rattus norvegicus)) for the entry `Cn1ncc2cc3cnccc3c(N)c21` 273 nM
